System: isolated rat liver mitochondria
measurement-protocol: Mitochondrial oxygen consumption (glutamate/malate or succinate driven, state 4 and state 3)
Assay type: biochemical
run-conditions: tested at 1 to 100-fold Cmax
measured-metric: lowest concentration significantly affecting mitochondrial oxygen consumption (fold Cmax)
# number only, unit fold Cmax dropped from output

Here are 3 molecules together with their reported answers.
molecule	observed-value
COc1cc2nccc(Oc3ccc(NC(=O)NC4CC4)c(Cl)c3)c2cc1C(N)=O [Lenvatinib]	30
Cc1cc(Nc2ncc(Cl)c(Nc3ccccc3S(=O)(=O)C(C)C)n2)c(OC(C)C)cc1C1CCNCC1 [Ceritinib]	30
N#CC[C@H](C1CCCC1)n1cc(-c2ncnc3[nH]ccc23)cn1 [Ruxolitinib]	20

Okay, next one:
lowest concentration significantly affecting mitochondrial oxygen consumption for CC[C@H](Nc1ncnc2[nH]cnc12)c1nc2cccc(F)c2c(=O)n1-c1ccccc1 [Idelalisib] ?
50

###

Test system: isolated rat liver mitochondria
measurement-protocol: Mitochondrial inner membrane potential (MMP), Rhodamine 123
Assay type: biochemical
measured-metric: lowest concentration decreasing MMP (fold Cmax)
The reply should be a number in fold Cmax, with the unit left off.

compound-structure-string	measured-metric	observed-value
Cc1cc(Nc2ncc(Cl)c(Nc3ccccc3S(=O)(=O)C(C)C)n2)c(OC(C)C)cc1C1CCNCC1	lowest concentration decreasing MMP	100

Next item in the queue.
# input compound: CC(C)(C)c1nc(-c2cccc(NS(=O)(=O)c3c(F)cccc3F)c2F)c(-c2ccnc(N)n2)s1 ; wanted: its lowest concentration decreasing MMP
20

###

Test system: isolated rat liver mitochondria
measurement-protocol: Mitochondrial oxygen consumption (glutamate/malate or succinate driven, state 4 and state 3)
Assay type: biochemical
run-conditions: 50-fold Cmax; oxygen consumption, DMSO-treated = 1
Checkbox rule: Glutamate/malate driven respiration State 4 lower than 1 = Fulfilled; Glutamate/malate driven respiration State 4 not lower than 1 = Not fulfilled.

// known answers, use as guide
compound-structure-string	system-under-test	discrete-label
COc1cc2nccc(Oc3ccc(NC(=O)NC4CC4)c(Cl)c3)c2cc1C(N)=O	isolated rat liver mitochondria	Fulfilled
CC(C)(C)c1nc(-c2cccc(NS(=O)(=O)c3c(F)cccc3F)c2F)c(-c2ccnc(N)n2)s1	isolated rat liver mitochondria	Not fulfilled

Does N#CC[C@H](C1CCCC1)n1cc(-c2ncnc3[nH]ccc23)cn1 have Glutamate/malate driven respiration State 4 strictly under 1?
Fulfilled

Consider the compound Cc1cc(Nc2ncc(Cl)c(Nc3ccccc3S(=O)(=O)C(C)C)n2)c(OC(C)C)cc1C1CCNCC1 . Is its Glutamate/malate driven respiration State 4 strictly less than 1?
Not fulfilled

###

Test system: isolated rat liver mitochondria
measurement-protocol: Mitochondrial oxygen consumption (glutamate/malate or succinate driven, state 4 and state 3)
Assay type: biochemical
run-conditions: 50-fold Cmax; oxygen consumption, DMSO-treated = 1
Threshold 0.6. Glutamate/malate driven respiration State 3 below it: y. Glutamate/malate driven respiration State 3 at it or above: n.

Use the examples below as a reference point.
compound-structure-string	discrete-label
COc1cc2nccc(Oc3ccc(NC(=O)NC4CC4)c(Cl)c3)c2cc1C(N)=O	n
Cc1cc(Nc2ncc(Cl)c(Nc3ccccc3S(=O)(=O)C(C)C)n2)c(OC(C)C)cc1C1CCNCC1	y
CC(C)(C)c1nc(-c2cccc(NS(=O)(=O)c3c(F)cccc3F)c2F)c(-c2ccnc(N)n2)s1	y
N#CC[C@H](C1CCCC1)n1cc(-c2ncnc3[nH]ccc23)cn1	y

Strictly below 0.6: is that where Glutamate/malate driven respiration State 3 of CC[C@H](Nc1ncnc2[nH]cnc12)c1nc2cccc(F)c2c(=O)n1-c1ccccc1 sits?
n

###

system-under-test: RCC II (Rattus norvegicus, UniProt P21913+Q641Z9+Q6PCT8+Q920L2)
Construct: Submitochondrial particles were prepared by subjecting the intact mitochondria to three successive freeze–thaw cycles; from tissue; host or cells: rat liver mitochondria, used as submitochondrial particles
Sequence (Q920L2 35-656): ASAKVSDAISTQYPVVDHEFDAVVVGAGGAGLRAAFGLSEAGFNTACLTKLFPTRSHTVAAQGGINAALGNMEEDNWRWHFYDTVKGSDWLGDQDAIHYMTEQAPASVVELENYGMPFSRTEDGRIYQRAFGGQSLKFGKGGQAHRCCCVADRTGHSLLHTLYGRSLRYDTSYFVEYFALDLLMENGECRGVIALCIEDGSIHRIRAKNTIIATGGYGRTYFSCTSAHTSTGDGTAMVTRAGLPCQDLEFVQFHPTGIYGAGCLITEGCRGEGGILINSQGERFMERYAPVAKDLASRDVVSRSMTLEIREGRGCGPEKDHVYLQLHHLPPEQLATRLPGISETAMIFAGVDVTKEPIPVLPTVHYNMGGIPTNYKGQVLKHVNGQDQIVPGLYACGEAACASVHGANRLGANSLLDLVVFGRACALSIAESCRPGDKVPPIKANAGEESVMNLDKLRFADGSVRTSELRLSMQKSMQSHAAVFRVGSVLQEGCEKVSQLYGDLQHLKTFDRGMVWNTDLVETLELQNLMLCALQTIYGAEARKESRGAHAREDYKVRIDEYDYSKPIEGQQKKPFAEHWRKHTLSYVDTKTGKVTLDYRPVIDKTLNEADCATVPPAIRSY
Sequence (P21913 31-282): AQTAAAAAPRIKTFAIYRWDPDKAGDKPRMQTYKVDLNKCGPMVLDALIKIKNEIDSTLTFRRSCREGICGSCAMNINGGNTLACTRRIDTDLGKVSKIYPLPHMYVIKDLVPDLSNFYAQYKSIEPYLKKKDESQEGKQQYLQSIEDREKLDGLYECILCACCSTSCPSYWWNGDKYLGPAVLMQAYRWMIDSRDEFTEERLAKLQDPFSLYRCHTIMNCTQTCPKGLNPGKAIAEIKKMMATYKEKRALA
Sequence (Q641Z9 1-169): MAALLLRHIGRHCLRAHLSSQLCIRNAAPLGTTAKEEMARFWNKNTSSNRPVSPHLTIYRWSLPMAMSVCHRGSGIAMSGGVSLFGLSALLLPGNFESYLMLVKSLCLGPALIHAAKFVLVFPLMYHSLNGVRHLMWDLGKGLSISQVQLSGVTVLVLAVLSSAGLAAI
Sequence (Q6PCT8 57-159): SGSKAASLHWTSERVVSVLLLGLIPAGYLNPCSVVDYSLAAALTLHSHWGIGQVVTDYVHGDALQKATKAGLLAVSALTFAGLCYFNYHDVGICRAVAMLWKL
measurement-protocol: RCC II activity in submitochondrial particles
Type: biochemical
Design: key: activity relative to DMSO-treated controls (control set as 1 = 100%)
run-conditions: 20XCmax; relative to DMSO treated samples
Where a name gives a salt, the structure may show the parent alone.
Examples of compounds with documented RCC II at 20XCmax follow.
Lab note: record the figure alone, no unit after it.

compound	system-under-test	RCC II at 20XCmax
C[C@@H](Oc1cc(-c2cnn(C3CCNCC3)c2)cnc1N)c1c(Cl)ccc(F)c1Cl	RCC II (Rattus norvegicus, UniProt P21913+Q641Z9+Q6PCT8+Q920L2)	0
COc1cc(Nc2c(C#N)cnc3cc(OCCCN4CCN(C)CC4)c(OC)cc23)c(Cl)cc1Cl	RCC II (Rattus norvegicus, UniProt P21913+Q641Z9+Q6PCT8+Q920L2)	0
C[C@@H]1CCN(C(=O)CC#N)C[C@@H]1N(C)c1ncnc2[nH]ccc12 [tofacitinib citrate]	RCC II (Rattus norvegicus, UniProt P21913+Q641Z9+Q6PCT8+Q920L2)	0
COc1cc2ncnc(Nc3ccc(F)c(Cl)c3)c2cc1OCCCN1CCOCC1	RCC II (Rattus norvegicus, UniProt P21913+Q641Z9+Q6PCT8+Q920L2)	0
CCN(CC)CCNC(=O)c1c(C)[nH]c(/C=C2\C(=O)Nc3ccc(F)cc32)c1C [sunitinib malate]	RCC II (Rattus norvegicus, UniProt P21913+Q641Z9+Q6PCT8+Q920L2)	0

Let us move to another entry and its RCC II at 20XCmax.
What reported RCC II at 20XCmax corresponds to CNC(=O)c1ccccc1Sc1ccc2c(/C=C/c3ccccn3)n[nH]c2c1 on RCC II (Rattus norvegicus, UniProt P21913+Q641Z9+Q6PCT8+Q920L2)?
0

###

System: isolated rat liver mitochondria
measurement-protocol: Mitochondrial oxygen consumption (glutamate/malate or succinate driven, state 4 and state 3)
Type: biochemical
run-conditions: highest tested concentrations
measured-metric: effect on state 4 respiration

molecule	observed-value
CNC(=O)c1cc(Oc2ccc(NC(=O)Nc3ccc(Cl)c(C(F)(F)F)c3)cc2)ccn1	significant increases
CC(C)(C)c1nc(-c2cccc(NS(=O)(=O)c3c(F)cccc3F)c2F)c(-c2ccnc(N)n2)s1	significant increases
CNC(=O)c1cc(Oc2ccc(NC(=O)Nc3ccc(Cl)c(C(F)(F)F)c3)c(F)c2)ccn1	significant increases
COc1cc2nccc(Oc3ccc(NC(=O)C4(C(=O)Nc5ccc(F)cc5)CC4)cc3)c2cc1OC [Cabozantinib]	significant increases

###

System: isolated rat liver mitochondria
measurement-protocol: Mitochondrial oxygen consumption (glutamate/malate or succinate driven, state 4 and state 3)
Format: biochemical
run-conditions: 100-fold Cmax; oxygen consumption, DMSO-treated = 1
Protocol: Rats were anesthetized by an intraperitoneal injection of Nembutal and the liver perfused with PBS to remove the blood. The liver was then cut into small pieces and homogenized using a Dounce type homogenizer in the ice-cold isolation buffer (IB) containing 200 mM sucrose, 10 mM Tris-MOPS, 1 mM EGTA (pH 7.4). The sample was then centrifuged at 600g for 10 min. […] The proteins were blotted to PVDF membranes and detected using antibodies against GAPDH, ATP5A, UQCRC2, SDHB, and NDUFB8. […]
measured-metric: Succinate-driven respiration State 4
Provide a numeric answer; units are not to be included.

compound	Succinate-driven respiration State 4
CC(C)(C)c1nc(-c2cccc(NS(=O)(=O)c3c(F)cccc3F)c2F)c(-c2ccnc(N)n2)s1 [Dabrafenib]	1.03
COc1cc2nccc(Oc3ccc(NC(=O)NC4CC4)c(Cl)c3)c2cc1C(N)=O [Lenvatinib]	1.07

Quick one: Succinate-driven respiration State 4 for CC[C@H](Nc1ncnc2[nH]cnc12)c1nc2cccc(F)c2c(=O)n1-c1ccccc1 [Idelalisib] ?
1.05

###

Tested on: isolated rat liver mitochondria
measurement-protocol: Mitochondrial oxygen consumption (glutamate/malate or succinate driven, state 4 and state 3)
Format: biochemical
run-conditions: tested at 1 to 100-fold Cmax
measured-metric: lowest concentration significantly affecting mitochondrial oxygen consumption

molecule	observed-value
CNC(=O)c1cc(Oc2ccc(NC(=O)Nc3ccc(Cl)c(C(F)(F)F)c3)cc2)ccn1	equal to Cmax
COc1cc2nccc(Oc3ccc(NC(=O)C4(C(=O)Nc5ccc(F)cc5)CC4)cc3)c2cc1OC [Cabozantinib]	tenfold
CC(C)(C)c1nc(-c2cccc(NS(=O)(=O)c3c(F)cccc3F)c2F)c(-c2ccnc(N)n2)s1	tenfold
CNC(=O)c1cc(Oc2ccc(NC(=O)Nc3ccc(Cl)c(C(F)(F)F)c3)c(F)c2)ccn1	equal to Cmax

###

Test system: isolated rat liver mitochondria
measurement-protocol: Mitochondrial inner membrane potential (MMP), Rhodamine 123
Type: biochemical
Excerpt: Fig. 3 KI effects on mitochondrial inner membrane potential (MMP). […] In a, c, data are means and standard derivations from three separate experiments. *p < 0.05 as compared to DMSO-treated samples at the end of experiments. In b, data are means of two independent experiments

compound-structure-string	lowest concentration decreasing MMP
CNC(=O)c1cc(Oc2ccc(NC(=O)Nc3ccc(Cl)c(C(F)(F)F)c3)c(F)c2)ccn1	onefold
CNC(=O)c1cc(Oc2ccc(NC(=O)Nc3ccc(Cl)c(C(F)(F)F)c3)cc2)ccn1	onefold
